# target_entity: DRB1*0901 (DR9) (Homo sapiens, UniProt P01903+P01911, A100R/A103E/D57H/D86V/F55Y/F60I/F76Y/I96F/K127E/L162R/M171V/P40D/Q125H/Q99R/R33Q/R42F/S133A/S66N/T210M/V115G/W38K/Y107V/Y59G/Y89S)
# Construct: Epstein-Barr virus (EBV) transformed homozygous cell lines were used as sources; endogenous in cells
# assay_procedure: biochemical
# Type: binding
# setup_conditions: Binding Capacity (IC 50% nM) Other Alleles DR9
No end group written: not given here.
readout: IC50

>>> measurement("GPPTALRSFGFAFGYM [Peptide 1136.29]")
"< 1000 nM"
